# Test system: PABPC1 PABC
# Assay type: binding, human
# conditionInfo: DMS-BM library, bait PABPC1 PABC, prey ATXN2, TLNPNAKEFNPRSF(averaged) over the two overlapping peptides; P = wild type, row aa = residue at this position
Hi there, I'd appreciate the recorded DMS-derived PSSM value (averaged), position P11 for every entry that follows.
Just the number, please, no unit after it.

IN: Find the measured DMS-derived PSSM value (averaged), position P11: item TLNPNAKEFNPRSF , target or system PABPC1 PABC.
OUT: 0.04091

IN: Kindly state the measured DMS-derived PSSM value (averaged), position P11 obtained for TLNPNAKEFNPRSF(averaged) P11I (TLNPNAKEFNIRSF) with PABPC1 PABC.
OUT: 0.006686

IN: # get_value(readout= DMS-derived PSSM value (averaged), position P11, system= PABPC1 PABC) for TLNPNAKEFNPRSF(averaged) P11T (TLNPNAKEFNTRSF)
OUT: 0.141

IN: Give DMS-derived PSSM value (averaged), position P11 (PABPC1 PABC) of the following substance: TLNPNAKEFNPRSF(averaged) P11G (TLNPNAKEFNGRSF)
OUT: 0.05139

IN: Report DMS-derived PSSM value (averaged), position P11 for TLNPNAKEFNPRSF(averaged) P11L (TLNPNAKEFNLRSF) tested on PABPC1 PABC.
OUT: 0.01529

IN: Which measured DMS-derived PSSM value (averaged), position P11 belongs to TLNPNAKEFNPRSF(averaged) P11A (TLNPNAKEFNARSF) , tested on PABPC1 PABC?
OUT: 0.00277
